Test system: SW-620
PROTOCOL NOTES: NCI tumour cell line growth inhibition, 48 h
Calls of active or inactive are those of the source. No stated cut-off is given here; in the data, active = GI50 up to about 1.1 µM and inactive = higher.
Select the matching outcome among active, inactive

O=c1[nH]nc(Cc2ccccc2)n1/N=C/c1ccc([N+](=O)[O-])o1 | inactive
COc1cc(-c2cc(OC)c(OC)c3ccc(Br)cc23)c2cc(Br)ccc2c1OC | inactive
O=C1C(Cl)=C(Sc2nnc3c4ccccc4c4ccccc4c3n2)C(=O)c2ccccc21 | inactive
Cc1cc2c(cc1C(=O)c1ccc(N)cc1)OCO2 | inactive
CCOC(=O)C(=O)Nc1cccc(Cl)c1C | inactive
O=[N+]([O-])c1ccc(OCCNc2cccc3ccccc23)cc1 | inactive
COC(=O)Nc1nc2cc(NS(=O)(=O)c3cccs3)ccc2[nH]1 | inactive
CCN1N=CSC12C(=O)N(c1ccccc1)C(=O)N2c1ccccc1 (configuration not stated) | inactive
Clc1cc(Cc2cc(Cl)c(Cl)c3c2OCOC3)c2c(c1Cl)COCO2 | inactive
COc1cc(C2c3cc4c(cc3[C@@H](N(C)c3ccc(N(C)C)cc3)C3COC(=O)C23)OCO4)cc(OC)c1O (some centres not stated) | active

INPUT: // outcome(item) with item = CN(C1=NCCO1)c1cccc2c1CCCC2
OUTPUT: inactive

INPUT: // outcome(item) with item = Cc1nc(=O)[nH]c(NCCNCCO)c1C(=O)Nc1cccc2cc3ccccc3cc12
OUTPUT: inactive

INPUT: // outcome(item) with item = CCN(CC)CCNC(=O)c1ccccc1NC(=O)C(=O)Nc1ccccc1C(=O)NCCN(CC)CC
OUTPUT: inactive

INPUT: // outcome(item) with item = Fc1ccc2c(c1)nc1n2C(c2c(F)cccc2F)SC1 (configuration not stated)
OUTPUT: inactive

INPUT: // outcome(item) with item = CCCCS/C(=C(/C#N)C(N)=O)c1cc2c([nH]1)CCCC2
OUTPUT: inactive

INPUT: // outcome(item) with item = Cc1cc2nc(N)n[n+]([O-])c2cc1C
OUTPUT: inactive

INPUT: // outcome(item) with item = CC(=O)[C@@H](C)C(=O)N1C(=O)OC[C@@]12[C@@H]1CC[C@@H](C1)C2(C)C
OUTPUT: inactive

INPUT: // outcome(item) with item = CCCCn1c2c(c3ccccc3c1=O)C(=O)c1ccccc1-2
OUTPUT: inactive

INPUT: // outcome(item) with item = Oc1ccc(Cc2cc(Cc3ccc(O)cc3)cc(Cc3ccc(O)cc3)c2)cc1
OUTPUT: inactive

INPUT: // outcome(item) with item = C=CC(C)(C)n1cc(C2=C3OC(=O)C(c4cn(C(C)(C)C=C)c5ccccc45)=C3OC2=O)c2ccccc21
OUTPUT: inactive

INPUT: // outcome(item) with item = COc1ccc(CNc2cc(OC)cc(OC)c2)cc1
OUTPUT: inactive

INPUT: // outcome(item) with item = Cc1ccc([S+]([O-])CC(CF)OCn2cc(C)c(=O)[nH]c2=O)cc1 (configuration not stated)
OUTPUT: inactive

----------
Tested on: HOP-62
PROTOCOL NOTES: NCI tumour cell line growth inhibition, 48 h
Calls of active or inactive are those of the source. Rule as the data show it: active = GI50 up to about 1.1 µM and inactive = higher.
Here the recorded GI50 is given for each entry.

Summary for this compound, COC(=O)c1ccccc1/C=C1\Cc2ccc(C)c(C)c2C1=O : GI50 is 59.8 µM (inactive)

Summary for this compound, COc1cc(COC(=O)N(CC(=O)O)c2ccccc2)c([N+](=O)[O-])cc1OC : GI50 is > 100 µM (inactive)

Summary for this compound, O=C(CC(Cc1ccccc1)c1ccc(Oc2ccccc2)cc1)Nc1cccc(Cl)c1 (stereo not given) : GI50 is 3.83 µM (inactive)

Summary for this compound, O=C(O)CN1CCN(CC(=O)N2CCN(C(=O)OCc3ccccc3)CC2)CCN(CC(=O)O)CCN(CC(=O)N2CCN(C(=O)OCc3ccccc3)CC2)CC1 : GI50 is > 100 µM (inactive)

Summary for this compound, Cc1cccc(-n2c(C)nc3ccc(NC(=S)Nc4ccccc4)cc3c2=O)c1 : GI50 is > 100 µM (inactive)

Summary for this compound, CCCCNC(=S)Nc1nc(C(=O)NNC(=O)c2ccccc2)cs1 : GI50 is 18 µM (inactive)

----------
Tested on: SF-268
PROTOCOL NOTES: NCI tumour cell line growth inhibition, 48 h
Calls of active or inactive are those of the source. Rule as the data show it: active = GI50 up to about 1.1 µM and inactive = higher.
Here the recorded GI50 is given for each entry.

Would you please look over these solved cases?
O=C1C(Br)=CC2([N+](=O)[O-])CCNC3=C(C4=NCCc5c[nH]c(c54)C3=O)C2=C1Br (stereo not given) | 2.26 µM (inactive)
O=c1[nH]nc(Cc2ccccc2)n1/N=C/c1ccc([N+](=O)[O-])o1 | 2.59 µM (inactive)
CN(C)c1ncnc2c1ncn2C1C=CC(COS(N)(=O)=O)C1 (stereo not given) | > 100 µM (inactive)
O=c1cc(-c2ccccc2)c2cc3c(=O)ccoc3cc2o1 | > 100 µM (inactive)
Cc1c(/C=N/NC(=S)N2CCCCC2)c(=O)n(-c2ccccc2)n1C | 29.5 µM (inactive)

Query C=C/C(C)=C\CC1[C@](C)(O)CC[C@H]2C(C)(C)C(O)CC[C@]12C (stereo not given in full) on SF-268; GI50 returned: > 100 µM (inactive)

Query Cc1nc2ccccc2c(=O)n1Nc1ccc(C(=O)O)cc1 on SF-268; GI50 returned: > 100 µM (inactive)

Query CN1CCC(C(O)(c2ccccc2)c2ccc(Br)cc2)CC1 (stereo not given) on SF-268; GI50 returned: 31.5 µM (inactive)

Query CCOC(=O)c1ccc(/N=N/N(C)C(=O)C(C)N)cc1 (stereo not given) on SF-268; GI50 returned: > 100 µM (inactive)

Query CC(=O)OCC(OC(C)=O)C(OC(C)=O)C(/C=N/N(C(C)=O)S(=O)(=O)c1ccc(/C=C2\NC(=O)NC2=O)cc1)OC(C)=O (stereo not given) on SF-268; GI50 returned: > 100 µM (inactive)

----------
Test system: SNB-78
PROTOCOL NOTES: NCI tumour cell line growth inhibition, 48 h
Activity calls are given as the source filed them. Cut-off read from the data, not from the text of the source: active = GI50 up to about 1.1 µM and inactive = higher.
Here the recorded GI50 is given for each entry.

COC(=O)c1cccc(N[C@@H]2c3cc4c(cc3C(c3cc(OC)c(O)c(OC)c3)[C@H]3C(=O)OCC32)OCO4)c1 (some centres not stated) | 3.67 µM (inactive)

Summary for this compound, COc1cc2c(cc1O)C=NCC2 : GI50 is > 100 µM (inactive)

Summary for this compound, COc1cccc(NC(=O)CSc2nnc(-c3ccc(NC(C)=O)cc3)o2)c1 : GI50 is > 100 µM (inactive)

Summary for this compound, COC(=O)C(CC(=O)Nc1ccc(C)cc1)C(=O)C(=O)Nc1ccccc1C(C)C (configuration not stated) : GI50 is > 100 µM (inactive)

Summary for this compound, COc1ccc(/C(=N\NC(=O)C(=O)NN)C(c2ccc(OC)cc2)C2(O)C(=O)Nc3ccccc32)cc1 (configuration not stated) : GI50 is > 100 µM (inactive)

Summary for this compound, COc1ccc(N2C(=O)[C@H]3CC(C)c4c([nH]c5ccccc45)[C@H]3C2=O)cc1 (some centres not stated) : GI50 is 5.08 µM (inactive)

Summary for this compound, CC(C)(C)C1CCC(=O)C(C(O)CC2CC(=O)N(c3ccccc3)C(=O)C2)C1 (configuration not stated) : GI50 is > 100 µM (inactive)

Summary for this compound, C[Si](C)(C)OC1(C#N)C2C3CC4C2C(=O)C2C4C3C21 (configuration not stated) : GI50 is > 100 µM (inactive)

Summary for this compound, C=C1CC2(OC1=O)c1ccccc1CCc1ccccc12 : GI50 is 2.18 µM (inactive)

Summary for this compound, c1ccc2c3c(ccc2c1)-c1[nH]ncc1CCO3 : GI50 is 29.2 µM (inactive)

Summary for this compound, CCOC(=O)NC1=C(N2CC2)C(=O)C(NC(=O)OCC)=C(N2CC2)C1=O : GI50 is 7.36 µM (inactive)

Summary for this compound, c1ccc(-c2nnc(-c3nsc4ccccc34)o2)cc1 : GI50 is 98.9 µM (inactive)

Summary for this compound, CCC(C)(C)NS(=O)(=O)c1ccccc1 : GI50 is > 100 µM (inactive)

Summary for this compound, O=C(O)CCC1CCc2cccc(O)c2C1=O (configuration not stated) : GI50 is > 100 µM (inactive)

Summary for this compound, CCN(c1ccccc1)[C@H]1C(=O)N(c2ccc([N+](=O)[O-])cc2)[C@H]1c1ccc(OC)cc1 : GI50 is > 100 µM (inactive)

Summary for this compound, CCOCNC(=O)N(COCC)COCC : GI50 is > 100 µM (inactive)

Summary for this compound, O=C(c1ccccc1)c1nc2ccc(Cl)cc2c2c1CCCO2 : GI50 is > 100 µM (inactive)
